Origin of values: the supplement of paper PMC8149375

minimum viability across doses values by entry
tested on: TK-10; experiment: minimum viability across doses, drug alone, relative to DMSO (fraction); higher = less growth inhibition; conditions: treatment: drug alone; 5 days
Please reply with the number alone, leaving off any unit.

# MOLECULE, MEASUREMENT_LABEL, VALUE
measured = [
    ("Cn1cnc(-c2cc3nccc(Oc4ccc(NC(=S)NC(=O)Cc5ccccc5)cc4F)c3s2)c1 [MGCD-265]", "minimum viability across doses", 0.938),
]

Report minimum viability across doses for O=C(NOCC1CC1)c1ccc(F)c(F)c1Nc1ccc(I)cc1Cl please.
0.362

Proceed to Cc1cc(Nc2cc(N3CCN(C)CC3)nc(Sc3ccc(NC(=O)C4CC4)cc3)n2)n[nH]1 [VX-680 (MK-0457, Tozasertib)]
0.548

Proceed to CCOc1ccn(-c2ccc(F)cc2)c(=O)c1C(=O)Nc1ccc(Oc2ccnc(N)c2Cl)c(F)c1
0.665
